System: E. coli TESEC Mtb DapB
Method summary: growth (OD600 after 10 h); higher = more growth (less inhibition)
Condition label: arabinose induction (level): Low; compound 0.1 mM; raw OD600 reference: median of DMSO wells 0.227, cell-free background 0.041
Where a name gives a salt, the structure may show the parent alone.
Label Satisfied for high-side growth (at or above 0.1) and Not satisfied for low-side growth (below it).

* CCCCC(CC)CNC(=N)NC(=N)NCCCCCCNC(=N)NC(=N)NCC(CC)CCCC (stereo not drawn) [Alexidine dihydrochloride] | Not satisfied
* COc1ccc(CN2CCN(C(c3ccc(F)cc3)c3ccc(F)cc3)CC2)c(OC)c1OC [Lomerizine hydrochloride] | Not satisfied
* CCC1NC(=O)c2cc(S(N)(=O)=O)c(Cl)cc2N1 (stereo not drawn) | Satisfied
* CC(=O)OCC(=O)NCCCOc1cccc(CN2CCCCC2)c1 [Roxatidine Acetate HCl] | Satisfied
* CC[C@@]1(O)C(=O)OCc2c1cc1n(c2=O)Cc2cc3c(CN(C)C)c(O)ccc3nc2-1 | Satisfied
* CC1Cc2ccccc2N1NC(=O)c1ccc(Cl)c(S(N)(=O)=O)c1 (stereo not drawn) [Indapamide] | Satisfied
* CCc1nn(CCCN2CCN(c3cccc(Cl)c3)CC2)c(=O)n1CCOc1ccccc1 [Nefazodone HCl] | Not satisfied
* Nc1ccn([C@@H]2O[C@H](CO)[C@@H](O)[C@@H]2O)c(=O)n1 | Satisfied

###

Tested on: E. coli TESEC Mtb Asd
Method summary: growth (OD600 after 10 h); higher = more growth (less inhibition)
Condition label: arabinose induction (level): Low; compound 0.1 mM; raw OD600 reference: median of DMSO wells 0.417, cell-free background 0.041
Where a name gives a salt, the structure may show the parent alone.
Label true for high-side growth (at or above 0.4) and false for low-side growth (below it).

* CCCNC(C)C(=O)Nc1c(C)csc1C(=O)OC (stereo not drawn) [Articaine hydrochloride] | true
* CC(=O)OC[C@H]1O[C@@H]([S-])[C@H](OC(C)=O)[C@@H](OC(C)=O)[C@@H]1OC(C)=O.CCP(CC)CC.[Au+] | false
* CC[N+](CC)(CC)CCC(O)(c1ccccc1)C1CCCCC1 (stereo not drawn) [Tridihexethyl chloride] | false
* CN(C)CCOC(c1ccccc1)c1ccccc1 [Diphenhydramine hydrochloride] | true
* Cc1nc2n(c(=O)c1CCN1CCC(c3noc4cc(F)ccc34)CC1)CCCC2 | false
* CC(=O)NCCCS(=O)(=O)O [Acamprosate calcium] | false
* Nc1nc2c(ncn2COCCO)c(=O)[nH]1 | true

###

Test system: E. coli TESEC Mtb Alr
Method summary: growth (OD600 after 10 h); higher = more growth (less inhibition)
Condition label: arabinose 10000 nM; compound 0.1 mM; raw OD600 reference: median of DMSO wells 0.264, cell-free background 0.041
Counter-ions that a name gives are not always drawn.
Outcome measure: growth

• O=C(Nc1cccc2c(=O)cc(-c3nnn[nH]3)oc12)c1ccc(OCCCCc2ccccc2)cc1 [Pranlukast] = 0.196
• NC(=O)OCC(O)COc1ccc(Cl)cc1 (stereo not drawn) [Chlorphensin carbamate] = 0.285
• CN(Cc1ccc(C(C)(C)C)cc1)Cc1cccc2ccccc12 [Butenafine Hydrochloride] = 0.2
• C=C1c2cccc(O)c2C(O)=C2C(=O)[C@]3(O)C(O)=C(C(N)=O)C(=O)[C@@H](N(C)C)[C@@H]3[C@@H](O)[C@H]12 [Methacycline hydrochloride] = 0.0468
• CCC(=O)OCC(=O)[C@@]1(OC(=O)CC)[C@@H](C)C[C@H]2[C@@H]3CCC4=CC(=O)C=C[C@]4(C)[C@@]3(Cl)[C@@H](O)C[C@@]21C [Beclomethasone dipropionate] = 0.28
• CC(C)(C)NC[C@H](O)COc1nsnc1N1CCOCC1 [Timolol maleate salt] = 0.252
• CC[N+](C)(C)Cc1ccccc1Br [Bretylium tosylate] = 0.261
• C[C@]12CCC(=O)C=C1C=C[C@@H]1[C@@H]2CC[C@@]2(C)[C@H]1CC[C@@]21CCC(=O)O1 [Canrenone] = 0.097

###

Consider the following molecules and their measured growth readings.
Tested on: E. coli TESEC Mtb Alr
Method summary: growth (OD600 after 10 h); higher = more growth (less inhibition)
Condition label: arabinose 100000 nM; compound 0.1 mM; raw OD600 reference: median of DMSO wells 0.201, cell-free background 0.041
Structures can show the parent of a compound that is named as a salt.
Outcome measure: growth

- Cc1cccc(C)c1NC(=O)CN1CCN(CCCC(c2ccc(F)cc2)c2ccc(F)cc2)CC1: 0.223
- NCc1ccc(S(N)(=O)=O)cc1 [Mafenide hydrochloride]: 0.187
- CCN(CC)CC#CCOC(=O)C(O)(c1ccccc1)C1CCCCC1 (centres undefined) [Oxybutynin chloride]: 0.131
- C[C@H](O)C(=O)Nc1c(I)c(C(=O)NC(CO)CO)c(I)c(C(=O)NC(CO)CO)c1I: 0.217
- CN1CCN(C2=Nc3ccccc3Oc3ccc(Cl)cc32)CC1 [Loxapine succinate]: 0.189
- CCN1CCN(c2cc3c(cc2F)c(=O)c(C(=O)O)cn3C2CC2)CC1: 0.0406
- Oc1ncnc2[nH]ncc12: 0.189
- O=C(O)/C=C/c1ccc(Cn2ccnc2)cc1 [Ozagrel hydrochloride]: 0.197
- CC(C(=O)O)c1ccc2c(c1)[nH]c1ccc(Cl)cc12 (centres undefined): 0.102

###

Test system: E. coli TESEC Mtb Alr
Method summary: growth (OD600 after 10 h); higher = more growth (less inhibition)
Condition label: arabinose 10000 nM; compound 0.1 mM; raw OD600 reference: median of DMSO wells 0.264, cell-free background 0.041
Structures can show the parent of a compound that is named as a salt.
Outcome measure: growth

* CC(C(=O)O)c1ccc(C(=O)c2cccs2)cc1 (stereo not given) | 0.254
* C#C[C@]1(O)CC[C@H]2[C@@H]3CCc4cc(OC)ccc4[C@H]3CC[C@@]21C | 0.262
* NS(=O)(=O)c1cc2c(cc1Cl)N=CNS2(=O)=O [Chlorothiazide] | 0.268
* CN(C)C/C=C(/c1ccc(Br)cc1)c1cccnc1 [Zimelidine dihydrochloride monohydrate] | 0.255
* Oc1c(Cl)cc(Cl)c2cccnc12 | 0.0409

###

Test system: E. coli TESEC Mtb Alr
Method summary: growth (OD600 after 10 h); higher = more growth (less inhibition)
Condition label: arabinose 10000000 nM; compound 0.1 mM; raw OD600 reference: median of DMSO wells 0.146, cell-free background 0.041
Structures can show the parent of a compound that is named as a salt.
Outcome measure: growth

• CCCNC(=O)NS(=O)(=O)c1ccc(Cl)cc1 [Chlorpropamide] = 0.141
• COc1ccc2[nH]c([S+]([O-])Cc3ncc(C)c(OC)c3C)nc2n1 (configuration not stated) = 0.134
• COC(=O)C1=C(C)NC(C)=C(C(=O)OCCN(C)Cc2ccccc2)C1c1cccc([N+](=O)[O-])c1 (configuration not stated) [Nicardipine hydrochloride] = 0.0566
• Cc1cccc(C)c1NC(=O)C(C)N (configuration not stated) [Tocainide hydrochloride] = 0.145
• Cc1c(N(C)CS(=O)(=O)O)c(=O)n(-c2ccccc2)n1C = 0.157
• CC(=O)O[C@H]1C(=O)[C@@]2(C)[C@H]([C@H](OC(=O)c3ccccc3)[C@]3(O)C[C@H](OC(=O)[C@H](O)[C@@H](NC(=O)c4ccccc4)c4ccccc4)C(C)=C1C3(C)C)[C@]1(OC(C)=O)CO[C@@H]1C[C@@H]2O = 0.179
• CC1(C)S[C@@H]2[C@H](NC(=O)[C@H](NC(=O)N3CCNC3=O)c3ccccc3)C(=O)N2[C@H]1C(=O)O [Azlocillin sodium salt] = 0.152

###

System: E. coli TESEC Mtb Alr
Method summary: growth (OD600 after 10 h); higher = more growth (less inhibition)
Condition label: arabinose 10000000 nM; compound 0.1 mM; raw OD600 reference: median of DMSO wells 0.146, cell-free background 0.041
Structures can show the parent of a compound that is named as a salt.
Label satisfied for high-side growth (at or above 0.1) and not satisfied for low-side growth (below it).

- O=C(CCCCC(=O)Nc1c(I)cc(I)c(C(=O)O)c1I)Nc1c(I)cc(I)c(C(=O)O)c1I [Iodipamide]: satisfied
- CCCNC(C)(C)COC(=O)c1ccccc1 [Meprylcaine hydrochloride]: satisfied
- c1ccc2c(c1)CCCc1cc(NCCN3CCOCC3)nnc1-2: satisfied
- NCCCCCC(=O)O: satisfied
- CCCC1C(=O)N2C(N(C)C)=Nc3ccc(C)cc3N2C1=O (stereo not drawn): satisfied
- Clc1ccccc1CN1CCc2sccc2C1 [Ticlopidine hydrochloride]: not satisfied
- C[C@H](CS)C(=O)N1CCC[C@H]1C(=O)O: satisfied
- CCN(CC)CCOC(=O)C(Cc1cccc2ccccc12)CC1CCCO1 (stereo not drawn) [Nafronyl oxalate]: satisfied
- COc1ccccc1N1CCN(CC(O)COc2cccc3ccccc23)CC1 (stereo not drawn) [Naftopidil dihydrochloride]: not satisfied
- CCN1CCN(c2cc3c(cc2F)c(=O)c(C(=O)O)cn3C2CC2)CC1: not satisfied
- CC(C)CC(=O)N[C@H](C(=O)N[C@H](C(=O)N[C@@H](CC(C)C)[C@@H](O)CC(=O)N[C@@H](C)C(=O)N[C@@H](CC(C)C)[C@@H](O)CC(=O)O)C(C)C)C(C)C: satisfied
- CCCc1nc(C)c2c(=O)nc(-c3cc(S(=O)(=O)N4CCN(CC)CC4)ccc3OCC)[nH]n12: satisfied
- C[C@H]1C[C@H]2[C@@H]3CCC4=CC(=O)C=C[C@]4(C)[C@@]3(F)[C@@H](O)C[C@]2(C)[C@@]1(O)C(=O)CO: satisfied
- CCN(CC)C(C)CN1c2ccccc2Sc2ccccc21 (stereo not drawn) [Ethopropazine hydrochloride]: satisfied
- CN1CCC(=C2c3ccccc3Sc3ccccc32)CC1 [Pimethixene maleate]: not satisfied
- COc1cc(-c2ccc(=O)[nH]n2)ccc1OC(F)F: satisfied
- COc1cc(C(=O)NC2CCCNC2)cc(OC)c1OC (stereo not drawn) [Troxipide]: satisfied
- O=C1c2c(O)cccc2Cc2cccc(O)c21: satisfied
- O=c1[nH]c(=O)n([C@H]2C[C@H](O)[C@@H](CO)O2)cc1I: satisfied
- CN(C)CCN(Cc1cccs1)c1ccccn1 [Methapyrilene hydrochloride]: satisfied
- CCCCOC(=O)c1ccc(N)cc1: satisfied
- NS(=O)(=O)c1cc2c(cc1C(F)(F)F)NC(Cc1ccccc1)NS2(=O)=O (stereo not drawn) [Bendroflumethiazide]: satisfied
- C(=C\c1ccccc1)/CN1CCN(C(c2ccccc2)c2ccccc2)CC1: satisfied
- CC(=O)/N=c1/sc(S(N)(=O)=O)nn1C [Methazolamide]: satisfied
- Nc1ccc(S(=O)(=O)Nc2ccc(Cl)nn2)cc1: satisfied
- CC[N+](CC)(CC)CCC(O)(c1ccccc1)C1CCCCC1 (stereo not drawn) [Tridihexethyl chloride]: satisfied
- NC[C@@H]1O[C@@H](O[C@H]2[C@H](O)[C@@H](O[C@H]3O[C@H](CO)[C@@H](O)[C@H](N)[C@H]3O)[C@H](N)C[C@@H]2N)[C@@H](O)[C@H](O)[C@H]1O [Kanamycin A sulfate]: satisfied
- O=C1Nc2ccc(Cl)cc2[C@@](C#CC2CC2)(C(F)(F)F)O1: not satisfied
- CC(=O)Nc1nnc(S(N)(=O)=O)s1 [Acetazolamide]: satisfied
- CN(C)C/C=C(/c1ccc(Br)cc1)c1cccnc1 [Zimelidine dihydrochloride monohydrate]: satisfied
- NNc1nncc2ccccc12 [Hydralazine hydrochloride]: satisfied
- CO[C@H]1C[C@H](O[C@H]2[C@H](C)[C@@H](O[C@@H]3O[C@H](C)C[C@H](N(C)C)[C@H]3OC(C)=O)[C@@H](C)C[C@@]3(CO3)C(=O)[C@H](C)[C@@H](OC(C)=O)[C@@H](C)[C@@H](C)OC(=O)[C@@H]2C)O[C@@H](C)[C@@H]1OC(C)=O: not satisfied
- CN[C@@H]1[C@H](O)[C@H](NC)[C@H]2O[C@@]3(O)C(=O)C[C@@H](C)O[C@H]3O[C@@H]2[C@H]1O [Spectinomycin dihydrochloride]: not satisfied
